Consider the following binders; for each one, report its log10(binding signal).
Target: T1, UNK ZnF1-3 (human, UniProt Q9C0B0 31-174)
T1 sequence: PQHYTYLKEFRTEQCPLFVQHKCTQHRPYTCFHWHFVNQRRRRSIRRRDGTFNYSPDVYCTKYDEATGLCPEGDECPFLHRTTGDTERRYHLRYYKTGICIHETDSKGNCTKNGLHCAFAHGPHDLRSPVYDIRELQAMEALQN
Assay: nsRBNS (natural sequence RNA bind-n-seq); RBNS binding buffer (assumed for nsRBNS): 25 mM Tris pH 7.5, 150 mM KCl, 3 mM MgCl2, 0.01% Triton X-100, 500 ug/ml BSA, 20 U/ml SUPERase-In, 4 C; UNK is unkempt and MSI1 is Musashi-1; names of the RNAs are library labels; protein concentration not given here; high values mean tight binding
The full ranking holds about 24,000 sequences; the median of “enrichment r” is about 0.99, and the highest 2% start at about 3.7. The sample as a whole holds a higher share of the highest values than the screen did.
A value of 2 here means binding signal of 100 in enrichment R, since values are log10.

Prompt: Could you tell me which log10(binding signal) is on file for 91404753_91404873_2338_CDS_ENSG00000122482_ENST00000337393|human|control|control (ssRNA) RNA: GGGAGUUCUACAGUCCGACGAUCAGGUUUUUGGUCAACGCUGCUUUUAAUUGUAACAUUCUUAUGAGGAGAGCUGUUUUGAUUGCACAUGUUUACACCUGAUUGGGCAAUGCUUUUCCGAGCUUUCUGUAUUCUGUGUGGCCGCAACAGAGGAUUGAGCAUCA ?
Response: -0.19

Prompt: Could you tell me which log10(binding signal) is on file for 90247206_90247326_4093_3pUTR_ENSMUSG00000012422_ENSMUST00000161568|mouse|control|control (ssRNA) RNA: GGGAGUUCUACAGUCCGACGAUCUUCUCAGAAGUUAGUCAGGACCCCCUGUAACAAGGGCGAUUGCUAGCACCGUUUGAGAACAUUUAUUAUUACUAGAAGGUAACAAAGGAAGAGAAGAGCAGCCCUAAGAAUUUUCCAUUCCAACAGAGGAUUGAGCAUCA ?
Response: -0.23

Prompt: Could you tell me which log10(binding signal) is on file for chr2:47388980:47388981:-_ENSG00000143933_ENST00000272298|hu_mus|hu_hu_hu_mus_True|8_68 (ssRNA) RNA: GGGAGUUCUACAGUCCGACGAUCUUCAUCUGUUAACUUCUCGCCAAGGUUUGUCAUCACAUGGCGAAGUUCUGCAGCACUAAUAUAGCCAUUGCCAUCCUUAUCAAACACACGGAAUGCUUCUCUAAUUUCUUCUUCACUGUCCAACAGAGGAUUGAGCAUCA ?
Response: -0.10

Prompt: Could you tell me which log10(binding signal) is on file for 22200820_22267049_921_CDS_ENSMUSG00000039197_ENSMUST00000045376|mouse|control|control (ssRNA) RNA: GGGAGUUCUACAGUCCGACGAUCUUGAGACAGAAAGCCUCCAACAAAUGCAUCUCCAGCUCCAUUGGUGUCAAUGAUCUCUUCCUGGUUUUGAUCCAAGACAGGAAAAGCAGUGACAUCAUUCUCUGCAGCCACUAUGGUGUCCAACAGAGGAUUGAGCAUCA ?
Response: -0.13

Prompt: Could you tell me which log10(binding signal) is on file for chr11:100882373:100882374:+_ENSMUSG00000019302_ENSMUST00000044721|mus_mus|mus_mus_mus_hu_True|28_28 (ssRNA) RNA: GGGAGUUCUACAGUCCGACGAUCUUCCUGGUUUGUGUUGAUUUCCUUCAGUUCAUUUUCAAUCUUCUCAAAAUUGGCCUCUAAGUCAAUCAUGUCCCGGGGGAAGGGCACCUCUGGGUUUUCACCGGUGUCCAUAAUCGGAAUCAACAGAGGAUUGAGCAUCA ?
Response: -0.22

Prompt: Could you tell me which log10(binding signal) is on file for chr9:127911758:127911759:-_ENSG00000119414_ENST00000373547|hu_mus|FALSE|FALSE (ssRNA) RNA: GGGAGUUCUACAGUCCGACGAUCUCUCAAACGAGUCCAAGGUGGGGUAGGAGGAGUGACAAAACUGAUAGAAAAACACUGCUAUUGACACCAUAACAAACAAUAAAUUUAGAUAAUUUAAAAUUAAAAAAAAAGGCAAGAGGCCAACAGAGGAUUGAGCAUCA ?
Response: 1.02

Prompt: Could you tell me which log10(binding signal) is on file for chr3:128198961:128198962:-_ENSG00000179348_ENST00000341105|hu_hu|motif|central (ssRNA) RNA: GGGAGUUCUACAGUCCGACGAUCACUGGACCCAAAAAGAGUUUAAAAAUAAAACAAUUAACUCAUCAGCGAGUUAAGCCGGUGCAUUUUUUUAAUAUUUUUUCUUUUGUCUCAGAGUAGGAGGCGAGGGGGUUGAAGGGUUAGCAACAGAGGAUUGAGCAUCA ?
Response: 0.19

Prompt: Could you tell me which log10(binding signal) is on file for 60597838_60597958_3500_3pUTR_ENSMUSG00000049323_ENSMUST00000056907|mouse|control|control (ssRNA) RNA: GGGAGUUCUACAGUCCGACGAUCUUUUUGGGAGCUACUUCCUUAAUGAACCAGGAGCAGCUGCUACUGUCCUUCUGGAGGGCCAUGUGCCACCUCUGCUCAGCCCACAUCACACACUGCCCAGGGCUAUGUUGCAACUAUAACCAACAGAGGAUUGAGCAUCA ?
Response: -0.07

Prompt: Could you tell me which log10(binding signal) is on file for chr19:37005844:37005845:-_ENSG00000254004_ENST00000523638|hu_mus|FALSE|FALSE (ssRNA) RNA: GGGAGUUCUACAGUCCGACGAUCGGGAGUUUUCUUAGAUUCACUGGGUCUCUCUUCGGUAUGUUGUUUCUGAUGAGAAAGGAAGUUUCCUCUCUGGCUGAAGGCCUUCCCACAUUCCCCACACUUGUAGGACUCCCUCCUUGGCAACAGAGGAUUGAGCAUCA ?
Response: -0.07

Prompt: Could you tell me which log10(binding signal) is on file for chr17:60770872:60770873:+_ENSG00000011028_ENST00000303375|hu_hu|hu_hu_hu_mus_True|48_78 (ssRNA) RNA: GGGAGUUCUACAGUCCGACGAUCUCUUUAAAAAAAAAAAAAAAAAGACAAACAAUAAUAAUGGCACUCGAGAAUCAAGAACUACAAAGAAAGGGCCGCUUUGAGUUUUUGUUCACAUCGUCCUGCACUGGGACACGGGGACUGCAACAGAGGAUUGAGCAUCA ?
Response: 0.67

Prompt: Could you tell me which log10(binding signal) is on file for chr21:34924512:34924513:+_ENSG00000159140_ENST00000381679|hu_mus|motif|central (ssRNA) RNA: GGGAGUUCUACAGUCCGACGAUCAGAUGACAUCAUGGAACGUUCUGCAGCAUAGGACAUCAUCAUAGAACGUCUAGAUGCGGACAUCAAGGGUCUAGGUGCUAACCUGUAUGGCCUAGGUGCUAUCCUAUAGGACCUGGGUGCCAACAGAGGAUUGAGCAUCA ?
Response: -0.17

Prompt: Could you tell me which log10(binding signal) is on file for chrX:71549762:71549763:+_ENSMUSG00000019087_ENSMUST00000019231|mus_mus|mus_mus_mus_hu_False|28_98 (ssRNA) RNA: GGGAGUUCUACAGUCCGACGAUCAAACCCGUGUACUCACUCUUAACAGCACAACAUCACCAGAAAACGAUAACGACAGCCAAGCAGGACAGACAGUUAAGUAGUACUUCCACACCUCCAAACUCAGGGAGCCCUAUAACCUUACAACAGAGGAUUGAGCAUCA ?
Response: 0.24

Prompt: Could you tell me which log10(binding signal) is on file for chr11:100882373:100882374:+_ENSMUSG00000019302_ENSMUST00000044721|mus_mus|mus_mus_mus_hu_True|38_68 (ssRNA) RNA: GGGAGUUCUACAGUCCGACGAUCUUCCUGGUUUGUGUUGAUUUCCUUCAGUUCAUUUUCAAUCUUCUCGAAAUUGGCCUCUAAGUCAAUCAUGUCCCGAGGGAAGGGAACCUCUGGGUUUUCACCGGUGUCCAUAAUCGGAAUCAACAGAGGAUUGAGCAUCA ?
Response: -0.35
